Examples of compounds with documented pIC50 follow.
- TEST TARGET: recombinant GST-tagged MDM2 (Homo sapiens, UniProt Q00987)
- Sequence (Q00987 whole entry): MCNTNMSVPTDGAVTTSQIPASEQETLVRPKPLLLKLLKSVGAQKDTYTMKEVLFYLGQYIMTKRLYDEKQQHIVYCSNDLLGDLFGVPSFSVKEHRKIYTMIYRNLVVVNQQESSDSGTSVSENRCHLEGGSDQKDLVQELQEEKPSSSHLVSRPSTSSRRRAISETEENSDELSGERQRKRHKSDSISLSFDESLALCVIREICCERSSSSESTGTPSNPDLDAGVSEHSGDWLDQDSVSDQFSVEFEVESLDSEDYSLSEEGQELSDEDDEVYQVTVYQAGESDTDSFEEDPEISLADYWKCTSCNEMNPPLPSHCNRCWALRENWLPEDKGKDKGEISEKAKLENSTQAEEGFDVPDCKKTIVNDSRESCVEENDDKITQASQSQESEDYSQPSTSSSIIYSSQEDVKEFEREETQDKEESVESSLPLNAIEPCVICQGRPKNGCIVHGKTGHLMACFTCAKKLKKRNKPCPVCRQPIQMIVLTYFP
- PROCEDURE SUMMARY: HTRF assay of interaction between p53 peptide and GST-tagged MDM2
- EXPERIMENTAL CONTEXT: inhibition of GST-MDM2 (160 ng/ml) binding to biotinylated p53-peptide
The quantity pIC50 is defined as the negative base-10 logarithm of the molar concentration.

Some compounds with recorded pIC50:
# COMPOUND, pIC50
records = [
    ("CC(C)Oc1cc(Cl)c(S(=O)(=O)NC(C)(C)C)cc1C1=N[C@@](C)(c2ccc(Cl)cc2)[C@@](C)(c2ccc(Cl)cc2)N1C(=O)N1CCC(CC(N)=O)CC1", 7.82),
    ("CCOc1cc(Cl)c(S(C)(=O)=O)cc1C1=N[C@@](C)(c2ccc(Cl)cc2)[C@@](C)(c2ccc(Cl)cc2)N1C(=O)N1CCC(CC(N)=O)CC1 (racemic) [Example 5]", 7.82),
    ("CCOc1cc(Cl)c(S(C)(=O)=O)cc1C1=N[C@@](C)(c2ccc(Cl)cc2)[C@@](C)(c2ccc(Cl)cc2)N1C(=O)N1CCC2(CCNCC2)CC1", 7.90),
    ("CCOc1cc(Cl)c(S(C)(=O)=O)cc1C1=N[C@@](C)(c2ccc(Cl)cc2)[C@@](C)(c2ccc(Cl)cc2)N1C(=O)N1CCC(CC(N)=O)CC1 [Example 39]", 8.21),
]

input: I have this compound here, `CC(C)Oc1cc(Cl)c(S(=O)(=O)N2CCCC2)cc1C1=N[C@@](C)(c2ccc(Cl)cc2)[C@@](C)(c2ccc(Cl)cc2)N1C(=O)N1CCC(CC(N)=O)CC1` , and I need its recorded pIC50.
output: 8.24

input: I have this compound here, CCOc1cc(Cl)c(S(C)(=O)=O)cc1C1=N[C@@](C)(c2ccc(Cl)cc2)[C@@](C)(c2ccc(Cl)cc2)N1C(=O)N1CCN(C2CCS(=O)(=O)C2)CC1 (some centres unmarked) , and I need its recorded pIC50.
output: 8.27

input: I have this compound here, `CCOc1cc(Cl)c(S(C)(=O)=O)cc1C1=N[C@@](C)(c2ccc(Cl)cc2)[C@@](C)(c2ccc(Cl)cc2)N1C(=O)N1CCC(CC(=O)N(CCOC)CCOC)CC1` , and I need its recorded pIC50.
output: 8.14

input: I have this compound here, `CCNC(=O)NC1CCN(C(=O)N2C(c3cc(S(C)(=O)=O)c(Cl)cc3OCC)=N[C@@](C)(c3ccc(Cl)cc3)[C@@]2(C)c2ccc(Cl)cc2)CC1` , and I need its recorded pIC50.
output: 8.38

input: I have this compound here, `CCOc1cc(Cl)c(S(=O)(=O)CC)cc1C1=N[C@@](C)(c2ccc(Cl)cc2)[C@@](C)(c2ccc(Cl)cc2)N1C(=O)N1CCN(CCCS(C)(=O)=O)CC1` , and I need its recorded pIC50.
output: 8.26

input: I have this compound here, `CCOc1cc(Cl)c(S(C)(=O)=O)cc1C1=N[C@@](C)(c2ccc(Cl)cc2)[C@@](C)(c2ccc(Cl)cc2)N1C(=O)N1CCC(N)CC1` , and I need its recorded pIC50.
output: 8.36

input: I have this compound here, `CCOc1cc(Cl)c(S(C)(=O)=O)cc1C1=N[C@@](C)(c2ccc(Cl)cc2)[C@@](C)(c2ccc(Cl)cc2)N1C(=O)N1CCC2(CCN(CCS(=O)(=O)CC)CC2)CC1` , and I need its recorded pIC50.
output: 8.34
